# protocol.details: LAP Dog PK study, SQ and IM injections (IV values given for reference)
# stated.conditions: in vivo, sc, SQ, dose 5 mg/kg, Beagle dogs, n=3
measurement.name: half-life (days)
Use days as the unit, but write only the number.

Find the recorded half-life belonging to CC(C)C1=C2[C@H]3CC[C@@H]4[C@@]5(C)CC[C@H](OC(=O)CC(C)(C)C(=O)O)C(C)(C)[C@@H]5CC[C@@]4(C)[C@]3(C)CC[C@@]2([C@@H](O)CN(CCN(C)C)Cc2ccc(Cl)cc2)CC1=O [compound of Formula I] and report it.
5.3

* * *

# protocol.details: LAP Rat PK study, SQ and IM injections (IV values given for reference)
# stated.conditions: in vivo, IM, dose 20 mg/kg, Sprague-Dawley rats, t = 42 days
measurement.name: AUC(0-t) (ng·h/mL)
Use ng·h/mL as the unit, but write only the number.

Find the recorded AUC(0-t) belonging to CC(C)C1=C2[C@H]3CC[C@@H]4[C@@]5(C)CC[C@H](OC(=O)CC(C)(C)C(=O)O)C(C)(C)[C@@H]5CC[C@@]4(C)[C@]3(C)CC[C@@]2([C@@H](O)CN(CCN(C)C)Cc2ccc(Cl)cc2)CC1=O [compound of Formula I] and report it.
24900

* * *

# protocol.details: LAP Dog PK study, SQ and IM injections (IV values given for reference)
# Set-up: species or system Beagle dogs
# stated.conditions: dog, in vivo; IM, dose 2.5 mg/kg, Beagle dogs, t = 17 days; read-out: AUC0-t
measurement.name: AUC(0-t) (ng·h/mL)
Use ng·h/mL as the unit, but write only the number.

Find the recorded AUC(0-t) belonging to "CC(C)C1=C2[C@H]3CC[C@@H]4[C@@]5(C)CC[C@H](OC(=O)CC(C)(C)C(=O)O)C(C)(C)[C@@H]5CC[C@@]4(C)[C@]3(C)CC[C@@]2([C@@H](O)CN(CCN(C)C)Cc2ccc(Cl)cc2)CC1=O" and report it.
8600

* * *

# protocol.details: LAP Dog PK study, SQ and IM injections (IV values given for reference)
# stated.conditions: in vivo, sc, SQ, dose 5 mg/kg, Beagle dogs, n=3
# Experimental: Injections were also made in Beagle dogs SQ and IM at 5 and 20 mg/kg doses with T1/2, Cmax, Tmax, and AUC measured.
measurement.name: Cmax (ng/mL)
Use ng/mL as the unit, but write only the number.

Find the recorded Cmax belonging to CC(C)C1=C2[C@H]3CC[C@@H]4[C@@]5(C)CC[C@H](OC(=O)CC(C)(C)C(=O)O)C(C)(C)[C@@H]5CC[C@@]4(C)[C@]3(C)CC[C@@]2([C@@H](O)CN(CCN(C)C)Cc2ccc(Cl)cc2)CC1=O [compound of Formula I] and report it.
59

* * *

# protocol.details: LAP Dog PK study, SQ and IM injections (IV values given for reference)
# stated.conditions: in vivo, sc, SQ, dose 5 mg/kg, Beagle dogs, n=3
measurement.name: Tmax (h)
Use h as the unit, but write only the number.

Find the recorded Tmax belonging to "CC(C)C1=C2[C@H]3CC[C@@H]4[C@@]5(C)CC[C@H](OC(=O)CC(C)(C)C(=O)O)C(C)(C)[C@@H]5CC[C@@]4(C)[C@]3(C)CC[C@@]2([C@@H](O)CN(CCN(C)C)Cc2ccc(Cl)cc2)CC1=O" and report it.
208
